Target: Polyunsaturated fatty acid 5-lipoxygenase (Homo sapiens)
Sequence (P09917 whole entry): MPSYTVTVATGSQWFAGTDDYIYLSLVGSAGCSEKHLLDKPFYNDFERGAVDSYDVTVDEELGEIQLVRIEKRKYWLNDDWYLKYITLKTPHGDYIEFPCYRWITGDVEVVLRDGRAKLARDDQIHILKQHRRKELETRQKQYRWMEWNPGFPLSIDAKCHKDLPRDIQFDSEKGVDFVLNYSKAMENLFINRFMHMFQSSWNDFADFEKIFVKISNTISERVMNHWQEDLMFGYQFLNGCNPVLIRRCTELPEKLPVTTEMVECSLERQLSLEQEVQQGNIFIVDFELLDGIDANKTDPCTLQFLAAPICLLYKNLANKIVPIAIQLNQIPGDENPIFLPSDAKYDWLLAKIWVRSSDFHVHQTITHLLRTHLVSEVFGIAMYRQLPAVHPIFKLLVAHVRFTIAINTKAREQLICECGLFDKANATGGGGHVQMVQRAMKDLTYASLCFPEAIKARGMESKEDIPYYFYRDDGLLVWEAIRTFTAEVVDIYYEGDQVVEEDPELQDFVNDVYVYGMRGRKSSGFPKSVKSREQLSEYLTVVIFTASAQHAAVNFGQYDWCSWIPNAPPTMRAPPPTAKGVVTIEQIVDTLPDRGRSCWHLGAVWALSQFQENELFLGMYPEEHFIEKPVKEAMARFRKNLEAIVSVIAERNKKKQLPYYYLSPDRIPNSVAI
Test: Inhibition of 5-lipoxygenase in human neutrophils assessed as inhibition of LTB4 production
// reported IC50 for each item listed

| structure notation | IC50 |
| --- | --- |
| C[C@@H]1[C@H](C)[C@@H](c2ccc(O)cc2)O[C@@H]1c1ccc(O)cc1 | > 50 µM |
| COc1ccc(-c2cc3cc(CCCO)ccc3o2)c(O)c1 | 27.2 µM |
| C/C=C/c1ccc2oc(-c3ccc(O)cc3OC)cc2c1 | > 50 µM |
